method_description: Solubility of quercetin in different release medium
Format: physicochemical
experimental_setup: 0.3% Tween80 aqueous solution, 0.3% Tween80; 32 °C, 24 h; read-out: Solubility in Tween80 Aqueous Solution
measurement_name: solubility at 24 h (µg/mL)
Return type: number; implicit unit µg/mL.

Measured solubility at 24 h of O=c1c(O)c(-c2ccc(O)c(O)c2)oc2cc(O)cc(O)c12 : 31.4

###

method_description: Solubility of quercetin in different release medium
Format: physicochemical
experimental_setup: 0.4% Tween80 aqueous solution, 0.4% Tween80; 32 °C, 24 h; read-out: Solubility in Tween80 Aqueous Solution
measurement_name: solubility at 24 h
Your answer should be a number followed by the unit of measure.

Measured solubility at 24 h of O=c1c(O)c(-c2ccc(O)c(O)c2)oc2cc(O)cc(O)c12 : 41.3 µg/mL

###

method_description: Solubility of quercetin in different release medium
Type: physicochemical
experimental_setup: 0.2% Tween80 aqueous solution, 32 °C, aqueous with cosolvent or surfactant or cyclodextrin, thermodynamic from solid, 0.2% Tween80; 32 °C, 24 h; read-out: Solubility in Tween80 Aqueous Solution
measurement_name: solubility at 24 h (µg/mL)
Return type: number; implicit unit µg/mL.

Measured solubility at 24 h of O=c1c(O)c(-c2ccc(O)c(O)c2)oc2cc(O)cc(O)c12 [Quercetin] : 24.7

###

method_description: Water solubility of quercetin and solubility in niosomes
Format: physicochemical
experimental_setup: 37 °C, water, thermodynamic from solid
Method: The water solubility of quercetin was measured with 15 mL of purified water, phosphate buffers with different pH values (pH 5.0, 6.0, 6.8, 7.4, 8.0), and excess quercetin, and placed into vials. The vials were shaken for 24 h in a 37 °C water bath and the supernatant was determined by HPLC after centrifugation.
measurement_name: solubility at 24 h (µg/mL)
Return type: number; implicit unit µg/mL.

Measured solubility at 24 h of O=c1c(O)c(-c2ccc(O)c(O)c2)oc2cc(O)cc(O)c12 [Quercetin] : 0.21

###

method_description: Solubility of quercetin in different release medium
Type: physicochemical
experimental_setup: 0.2% SDS aqueous solution, 0.2% SDS; 32 °C, 24 h; read-out: Solubility in SDS Aqueous Solution
measurement_name: solubility at 24 h (µg/mL)
Return type: number; implicit unit µg/mL.

Measured solubility at 24 h of O=c1c(O)c(-c2ccc(O)c(O)c2)oc2cc(O)cc(O)c12 [Quercetin] : 4.58

###

method_description: Solubility of quercetin in different release medium
Format: physicochemical
experimental_setup: 0.8% Tween80 aqueous solution, 32 °C, pH 5, aqueous with cosolvent or surfactant or cyclodextrin, thermodynamic from solid, 0.8% Tween80, pH 5.0; read-out: Solubility in pH-0.8%Tween80 Aqueous Solution
measurement_name: solubility at 24 h
Your answer should be a number followed by the unit of measure.

Measured solubility at 24 h of O=c1c(O)c(-c2ccc(O)c(O)c2)oc2cc(O)cc(O)c12 : 76.1 µg/mL

###

method_description: Solubility of quercetin in different release medium
Format: physicochemical
experimental_setup: 0.6% SDS aqueous solution, 32 °C, aqueous with cosolvent or surfactant or cyclodextrin, thermodynamic from solid, 0.6% SDS; 32 °C, 24 h; read-out: Solubility in SDS Aqueous Solution
measurement_name: solubility at 24 h (µg/mL)
Return type: number; implicit unit µg/mL.

Measured solubility at 24 h of O=c1c(O)c(-c2ccc(O)c(O)c2)oc2cc(O)cc(O)c12 : 6.48

###

target_system: tyrosinase
method_description: In vitro tyrosinase inhibition (dopachrome formation at 493 nm, L-tyrosine substrate)
Assay type: biochemical
experimental_setup: tyrosinase 120 unites/mL, phosphate buffer pH 6.8, 30 °C, L-tyrosine
Quick reference: IC50 anti-tyrosinase activity of the listed items.
Return type: number; implicit unit µg/mL.

Measured IC50 anti-tyrosinase activity of O=c1c(O)c(-c2ccc(O)cc2O)oc2cc(O)cc(O)c12 : 4.26

Measured IC50 anti-tyrosinase activity of O=c1c(O)c(-c2ccc(O)c(O)c2)oc2cc(O)cc(O)c12 : 1.59

Measured IC50 anti-tyrosinase activity of O=c1c(O)c(-c2ccc(O)c(O)c2)oc2cc(O)ccc12 : 23.10
